- experimental.target: human recombinant 5-HT2C receptor (Homo sapiens)
- Construct: expressed in transfected cells; host or cells: Jump-In HEK cells (membrane preparation)
- assay.text: Test Example 2: 5-HT2C receptor binding inhibition test ([3H]-Mesulergine; non-specific ligand Serotonin HCl)
- condition: human serotonin 5-HT2C receptor binding activity
parameter.measured: Ki (nM)

1) COCc1nc(C)c(-c2cc(Nc3ncc(OC(F)F)cc3Cl)ncc2OCCO)c(C)n1: 5.1
2) Cn1ncc(Cl)c1-c1cc(Nc2ncc(F)cc2F)c(F)cc1OCCO: 2.09
3) Cn1ncc(Br)c1-c1cc(Nc2cc(C(F)(F)F)c(Cl)cn2)ncc1OCCO: 0.722
4) Cn1ncc(Br)c1-c1cc(Nc2ncc(OC(F)(F)F)cn2)ncc1OCCO: 3.02
5) Cn1ncc(Cl)c1-c1cc(Nc2ccc(Cl)cn2)c(F)cc1OCCO: 1.26
6) COCc1nc(C)c(-c2cc(Nc3ncc(OC(F)(F)F)cc3Cl)ncc2OCCO)c(C)n1: 1.9
7) COCc1nc(C)c(-c2cc(Nc3ncc(-n4cc(Cl)cn4)cc3Cl)ncc2OCCO)c(C)n1: 0.727
8) Cn1ncc(Br)c1-c1cc(Nc2cnc(C(F)(F)F)cn2)c(F)cc1OCCO: 5.79

###

// reported pKi per item
- experimental.target: human recombinant 5-HT2A receptor (Homo sapiens, UniProt P28223)
- Construct: expressed in transfected cells; host or cells: Jump-In HEK cells (membrane preparation)
- Sequence (P28223 whole entry): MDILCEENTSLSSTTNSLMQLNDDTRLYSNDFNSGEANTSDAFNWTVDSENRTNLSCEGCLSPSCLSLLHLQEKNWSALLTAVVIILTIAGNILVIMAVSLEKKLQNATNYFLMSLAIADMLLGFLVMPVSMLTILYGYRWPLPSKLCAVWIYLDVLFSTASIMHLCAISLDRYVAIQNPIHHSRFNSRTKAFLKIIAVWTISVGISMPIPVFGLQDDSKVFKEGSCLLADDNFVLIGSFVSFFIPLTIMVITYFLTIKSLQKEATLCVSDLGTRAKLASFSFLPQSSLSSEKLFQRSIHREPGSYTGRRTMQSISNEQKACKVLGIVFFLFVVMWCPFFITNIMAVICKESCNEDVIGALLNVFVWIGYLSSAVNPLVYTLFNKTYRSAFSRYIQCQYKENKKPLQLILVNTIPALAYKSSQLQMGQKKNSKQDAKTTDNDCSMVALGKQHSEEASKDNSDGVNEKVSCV
- assay.text: Test Example 1-2: 5-HT2A receptor binding inhibition test ([3H]-Ketanserin; non-specific ligand Ketanserin)
- condition: [3H]-Ketanserin; non-specific binding with 500 µmol/L Ketanserin; room temperature (25°C), 1.5 hours; read-out: h 5-HT2A Ki
pKi: −log10 of the molar value.
parameter.measured: pKi

1. CC(C)Oc1ccc(Nc2cc(-c3c(Br)cnn3C)c(OCCO)cn2)nc1: 9.32
2. Cn1ncc(F)c1-c1cc(Nc2ncc(Cl)cc2F)c(F)cc1OCCO: 9.80
3. Cn1ncc(Br)c1-c1cc(Nc2ncc(F)cn2)c(F)cc1OCCO: 9.41
4. Cn1ncc(Br)c1-c1cc(Nc2ncc(Cl)cc2F)c(F)cc1OCCO: 9.45
5. Cc1cccc(C)c1-c1cc(Nc2ncc(C(F)(F)F)cc2F)ccc1OCCO: 9.11
6. Cc1cnn(C)c1-c1cc(Nc2ncc(Cl)cc2F)c(F)cc1OCCO: 9.68

###

- experimental.target: human recombinant 5-HT2A receptor (Homo sapiens, UniProt P28223)
- Construct: expressed in transfected cells; host or cells: Jump-In HEK cells (membrane preparation)
- assay.text: Test Example 1-2: 5-HT2A receptor binding inhibition test ([3H]-Ketanserin; non-specific ligand Ketanserin)
- condition: [3H]-Ketanserin; non-specific binding with 500 µmol/L Ketanserin; room temperature (25°C), 1.5 hours; read-out: h 5-HT2A Ki
Response field label takes t when Ki is strictly below 0.9 nM and f in all other cases.

1. CCn1ncc(C)c1-c1cc(Nc2ncc(C(F)(F)F)cc2F)ccc1OCCO: t
2. Cn1ncc(Br)c1-c1cc(Nc2ncc(C3CC3)cn2)ncc1OCCO: t
3. COCc1nc(C)c(-c2cc(Nc3ncc(-c4ccc(F)c(F)c4)cc3Cl)ncc2OCCO)c(C)n1: t
4. COCc1nc(C)c(-c2cc(Nc3ccc(-c4ccc(F)cc4)cn3)ncc2OCCO)c(C)n1: t
5. Cc1nc(C)c(-c2cc(Nc3ccc(-c4ccc(F)cc4)cn3)ncc2O[C@H](C)CO)c(C)n1: t
6. Cn1ncc(Br)c1-c1cc(Nc2ccc(OC(F)(F)F)cc2)ccc1OCCO: t
7. Cn1ncc(Br)c1-c1cc(Nc2ncc(F)cc2F)ncc1OCCO: t
8. COCc1nc(C)c(-c2cc(Nc3ncc(C4CC4(F)F)cc3Cl)ncc2OCCO)c(C)n1 (racemic): f
9. Cn1ncc(Br)c1-c1nc(Nc2ccc(Cl)cn2)c(F)cc1OCCO: t
10. COC(=O)c1ccc(C)c(-c2cc(Nc3ncc(C(F)(F)F)cc3F)ncc2OCCO)c1: f
11. Cn1ncc(Br)c1-c1cc(Nc2nc3cc(Cl)ccc3[nH]2)ccc1OCCO: t
12. Cc1nc(C)c(-c2cc(Nc3ncc(OC(F)(F)F)cc3Cl)ncc2OCCO)c(C)n1: f
13. COc1ccc2nc(Nc3ccc(OCCO)c(-c4c(Br)cnn4C)c3)sc2c1: t
14. Cc1nc(CO[C@H]2CCOC2)nc(C)c1-c1cc(Nc2ncc(C(F)(F)F)cc2Cl)ncc1OCCO: f
15. COCc1nc(C)c(-c2nc(Nc3ccc(C(F)(F)F)c(C#N)n3)c(F)cc2OCCO)c(C)n1: f
16. Cn1ncc(Br)c1-c1cc(Nc2ncc(C#N)cc2F)ccc1OCCO: t
17. Cc1nc(C)c(-c2cc(Nc3cc(OC(F)F)c(Cl)cn3)ncc2OCCO)c(C)n1: f
18. Cn1ncc(Br)c1-c1nc(Nc2ccc(C(F)(F)F)cc2)ncc1OCCO: t
19. Cn1ncc(Br)c1-c1cc(Nc2ncc(C3CC3)s2)cnc1OCCO: t
20. Cc1nc(C)c(-c2cc(Nc3ncc(OC(F)(F)F)cc3F)ncc2O[C@H](C)CO)c(C)n1: f
21. Cc1nc(C)c(-c2cc(Nc3ncc(C(F)(F)F)cc3Cl)ncc2OCCO)c(C)n1: f
22. Cc1ncnc(C)c1-c1cc(Nc2ncc(Cl)cc2F)ccc1OCCO: t
23. Cc1n[nH]c(C)c1-c1cc(Nc2ncc(C(F)(F)F)cc2F)ccc1OCCO: t

###

- experimental.target: human recombinant 5-HT2A receptor (Homo sapiens)
- Construct: expressed in transfected cells; host or cells: Jump-In HEK cells (membrane preparation)
- assay.text: Test Example 1-2: 5-HT2A receptor binding inhibition test ([3H]-Ketanserin; non-specific ligand Ketanserin)
- condition: [3H]-Ketanserin; non-specific binding with 500 µmol/L Ketanserin; room temperature (25°C), 1.5 hours; read-out: h 5-HT2A Ki
parameter.measured: Ki (nM)

1) Cn1ncc(C#N)c1-c1cc(Nc2ccc(C(F)(F)F)cn2)ccc1OCCO: 0.224
2) COCc1nc(C)c(-c2cc(Nc3ncc(-c4cnn(C(F)(F)F)c4)cc3Cl)ncc2OCCO)c(C)n1: 3.58
3) Cc1nc(C)c(-c2cc(Nc3ccc(-c4ccccc4)cn3)ncc2OCCO)c(C)n1: 0.303
4) Cc1cnc(Nc2ccc(OCCO)c(-c3c(Br)cnn3C)c2)s1: 0.209
5) COCc1nc(C)c(-c2nc(Nc3ccc(C4CCC4)cn3)c(F)cc2OCCO)c(C)n1: 3.43
6) Cc1cc(OCCO)c(-c2c(C#N)cnn2C)cc1Nc1ncc(C(F)(F)F)cc1F: 1.67
7) COCc1nc(C)c(-c2cc(Nc3ccc(C(F)(F)F)c(C)n3)ncc2OCCO)c(C)n1: 0.794
8) COCc1nc(C)c(-c2cc(Nc3ncc(-c4ncc(F)cn4)cc3Cl)ncc2OCCO)c(C)n1: 5.19
9) Cn1ncc(Br)c1-c1cc(Nc2ncc(F)cc2F)ccc1OCCO: 0.284
10) Cc1ncccc1-c1cc(Nc2ncc(C(F)(F)F)cc2F)ccc1OCCO: 0.332

###

- experimental.target: human recombinant 5-HT2C receptor (Homo sapiens, UniProt P28335)
- Construct: expressed in transfected cells; host or cells: Jump-In HEK cells (membrane preparation)
- Sequence (P28335 33-458): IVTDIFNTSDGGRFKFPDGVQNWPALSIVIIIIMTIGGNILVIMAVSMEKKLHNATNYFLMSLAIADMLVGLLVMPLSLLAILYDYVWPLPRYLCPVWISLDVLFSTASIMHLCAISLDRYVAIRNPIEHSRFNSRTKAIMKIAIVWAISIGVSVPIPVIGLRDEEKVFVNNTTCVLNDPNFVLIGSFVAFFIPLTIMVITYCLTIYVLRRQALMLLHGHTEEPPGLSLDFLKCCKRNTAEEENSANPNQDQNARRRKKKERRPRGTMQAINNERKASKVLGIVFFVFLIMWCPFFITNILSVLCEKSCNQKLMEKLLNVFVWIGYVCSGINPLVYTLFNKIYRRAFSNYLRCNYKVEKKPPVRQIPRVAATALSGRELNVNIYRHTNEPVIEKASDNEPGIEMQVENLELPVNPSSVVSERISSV
- assay.text: Test Example 2: 5-HT2C receptor binding inhibition test ([3H]-Mesulergine; non-specific ligand Serotonin HCl)
- condition: human serotonin 5-HT2C receptor binding activity
parameter.measured: Ki (nM)

1. Cn1ncc(Br)c1-c1nc(Nc2ccc(C(F)(F)F)c(Cl)c2)ncc1OCCO [Compound I-351]: 1.77
2. COCc1nc(C)c(-c2cc(Nc3ncc(OC4CC(F)(F)C4)cc3Cl)ncc2OCCO)c(C)n1 [Compound I-332]: 3.12
3. COCc1nc(C)c(-c2cc(Nc3ccc(-c4ccc(Cl)cc4)cn3)ncc2OCCO)c(C)n1 [Compound I-273]: 0.395

###

// reported Ki per item
- experimental.target: human recombinant 5-HT2A receptor (Homo sapiens, UniProt P28223)
- Construct: expressed in transfected cells; host or cells: Jump-In HEK cells (membrane preparation)
- assay.text: Test Example 1-2: 5-HT2A receptor binding inhibition test ([3H]-Ketanserin; non-specific ligand Ketanserin)
- condition: [3H]-Ketanserin; non-specific binding with 500 µmol/L Ketanserin; room temperature (25°C), 1.5 hours; read-out: h 5-HT2A Ki
parameter.measured: Ki (nM)

1) Cc1nc(COC2CCCOC2)nc(C)c1-c1cc(Nc2ncc(C(F)(F)F)cc2Cl)ncc1OCCO (racemic): 2.44
2) COCc1nc(C)c(-c2cc(Nc3ncc(-c4cc(F)cc(F)c4)cc3Cl)ncc2OCCO)c(C)n1: 0.933
3) Cc1cnn(C)c1-c1cc(Nc2ncc(OC(F)F)cc2F)ncc1OCCO: 0.386
4) COCc1nc(C)c(-c2cc(Nc3ncc(-c4ccc(Cl)c(F)c4)cc3Cl)ncc2OCCO)c(C)n1: 0.525
5) Cn1ncc(Br)c1-c1cc(Nc2nc3ccccc3s2)ncc1OCCO: 0.299
6) Cn1ncc(F)c1-c1cc(Nc2ncc(C(F)(F)F)cc2F)ccc1OCCO: 0.235
7) COCc1nc(C)c(-c2cc(Nc3ncc(OC(F)(F)F)cc3OC)ncc2OCCO)c(C)n1: 4.46
8) Cc1cncc(C)c1-c1cc(Nc2ncc(C(F)(F)F)cc2F)ccc1OCCO: 0.31
9) Cc1nc(C)c(-c2cc(Nc3ncc(OC(F)(F)F)cc3F)c(F)cc2OCCO)c(C)n1: 0.888
10) Cc1nc(C)c(-c2nc(Nc3ccc(C(F)(F)F)c(C)n3)c(F)cc2OCCO)c(C)n1: 2.87
11) Cn1ncc(Br)c1-c1cc(Nc2ncc(C(F)(F)F)cc2F)c(Cl)cc1OCCO: 0.347
12) COCc1nc(C)c(-c2cc(Nc3ccc(OCc4ccccc4)cn3)ncc2OCCO)c(C)n1: 0.421
13) Cc1nc(C)c(-c2cc(Nc3ncc(C(F)(F)F)cc3C)c(F)cc2OCCO)c(C)n1: 1.92
14) COC(=O)c1ccc(-c2cc(Nc3ncc(C(F)(F)F)cc3F)ncc2OCCO)c(C)c1: 1.03
15) Cn1ncc(Br)c1-c1cc(Nc2ccc(OC(F)F)cn2)ccc1OCCO: 0.158
16) Cn1ncc(Cl)c1-c1cc(Nc2ncc(OC(F)(F)F)cn2)ncc1OCCO: 0.252
17) Cn1ncc(Cl)c1-c1nc(Nc2ccc(OC(F)(F)F)cn2)c(F)cc1OCCO: 0.244
18) Cn1ncc(Br)c1-c1cc(Nc2nc3ccc(F)cc3n2C)ccc1OCCO: 0.274
19) Cc1ccc(-c2cc(Nc3ncc(C(F)(F)F)cc3F)ccc2OCCO)c(C)n1: 0.25
20) COCc1nc(C)c(-c2cc(Nc3ncc(OCC(F)(F)F)cc3Cl)ncc2OCCO)c(C)n1: 8.27
